Target of assay: T1, human HLA-A*0201 molecule (human, UniProt P04439 25-302 at identity 0.94))
T1 construct: whole, on cells; MHC class I molecule on the surface of T2-0201 cells; also called HLA-A0201 class I molecule
T1 MHC heavy: not shown
Experiment summary: binding assay (stabilization assay), T2-0201 cells, flow cytometry (non-peptide 84.50)
Readout: MIF

Past entries and their recorded results:
[[record]]
binder = "LLLDPIFKL (Modified-type peptide) [eEF2292-300 2L9L peptide]"
readout = "MIF"
recorded_result = 319

[[record]]
binder = "LMLDPIFKL (Modified-type peptide) [eEF2292-300 2M9L peptide]"
readout = "MIF"
recorded_result = 275

[[record]]
binder = "LILDPIFKV (Synthesized 9-residue peptide of eEF2; also called candidate peptide number 1) [eEF2292-300 peptide]"
readout = "MIF"
recorded_result = 312


**Q:** Can you share its MIF? I mean this binder: LLLDPIFKV (Modified-type peptide) [eEF2292-300 2L peptide]
**A:** 339

**Q:** Next binder: LMLDPIFKV (Modified-type peptide) [eEF2292-300 2M peptide]
**A:** 313
